- Assay overview: small-molecule binders of probe aNOTCH2, primary screen, biochemical, small-molecule microarray, 635/667 nm fluorescence (AID 1121);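 also: score merges feature fluorescence read at 667 nm with its signal to noise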
- Recorded conditions: higher = more signal
Measurement kind: composite z-score

C[C@H]1CC[C@H]2C(=O)O[C@H](CO)CN2[C@@H]1c1ccc(Br)cc1; -0.124
CC(CCN1CCCc2nc(C)c(C)cc21)=NOC[C@@H](O)COCc1ccco1; 0.826
COC(=O)CC=C[C@@H](C)[C@@H](C=NOC(C)CN1CCCCc2nc(C)c(C)cc21)OC (stereo not given in full); -0.0439
CC(C)(C)N1C(=O)[C@H]2[C@@H]3C(=CC[C@H]2C1=O)C(=O)[C@H]1O[C@H]1[C@H]3O; -0.154
CCOC(=O)CCN1C(=O)[C@H]2[C@H]3[C@H](O)[C@H](O)CC(=O)[C@@H]3CC[C@H]2C1=O; -0.12

* * *

- Measured target: Pro-neuregulin-1, membrane-bound isoform (Homo sapiens) (UniProt Q02297)
- Sequence (Q02297 whole entry, looked up, canonical isoform): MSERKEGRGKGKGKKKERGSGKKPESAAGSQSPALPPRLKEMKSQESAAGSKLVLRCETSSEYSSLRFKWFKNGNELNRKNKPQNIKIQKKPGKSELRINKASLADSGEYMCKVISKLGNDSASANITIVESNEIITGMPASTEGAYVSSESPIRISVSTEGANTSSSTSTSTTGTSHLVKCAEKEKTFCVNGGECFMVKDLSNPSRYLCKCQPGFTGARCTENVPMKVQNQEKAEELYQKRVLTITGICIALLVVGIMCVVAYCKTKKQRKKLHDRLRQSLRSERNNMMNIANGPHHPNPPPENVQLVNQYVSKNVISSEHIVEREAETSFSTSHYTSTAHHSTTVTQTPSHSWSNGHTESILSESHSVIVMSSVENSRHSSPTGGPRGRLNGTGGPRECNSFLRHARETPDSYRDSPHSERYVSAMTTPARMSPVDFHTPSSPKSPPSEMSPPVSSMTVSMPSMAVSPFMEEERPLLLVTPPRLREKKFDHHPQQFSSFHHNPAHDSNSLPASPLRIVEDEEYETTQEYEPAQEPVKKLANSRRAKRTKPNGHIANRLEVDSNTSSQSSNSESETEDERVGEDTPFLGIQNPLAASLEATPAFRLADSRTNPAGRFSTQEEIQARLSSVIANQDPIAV
- Assay overview: NRG1 binders on small-molecule microarrays, primary screen, psychiatric disease protein project, biochemical, small-molecule microarray, fluorescence 635/667 (AID 1075);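 also: score combines 667 nm spot fluorescence with signal to noise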
- Recorded conditions: NRG1 binding, 635 nm fluorescence, higher = more signal
# label = condition met if composite z-score >= 0.3 else condition not met

Cc1ccc2[nH]c3nc(CCCn4ccnc4-c4ccccc4)nnc3c2c1; condition met
CC(C)(C)N1C(=O)[C@H]2[C@H]3[C@H](O)[C@H](O)CC(=NNC(=O)OCc4ccccc4)[C@H]3CC[C@H]2C1=O; condition not met
C[C@@H](c1ccccc1)N1C(=O)[C@H]2[C@H]3[C@H](O)[C@H](O)CC(=NOC[C@@H](O)COCc4ccco4)[C@H]3CC[C@H]2C1=O; condition not met
O=C1[C@H]2[C@H]3[C@H](O)[C@H](O)CC(=NO[C@@H]4O[C@H](CO)[C@@H](O)[C@H](O)[C@H]4O)[C@H]3CC[C@H]2C(=O)N1C[C@@H]1CCCO1; condition not met
C[C@@H]1CC[C@@H](C(=O)O)N[C@H]1c1cccc(N2CCOCC2)c1; condition not met
CC(C)[C@H](NC(=O)OC(C)(C)C)[C@@H](O)CC(=O)C(C)(C)C; condition not met
CCOC(=O)[C@H](Cc1ccccc1)NC(=O)CCC1CC(OC(=O)NCc2cccc3ccccc23)CC2(CCCC(COC(=O)NCC3CCCCC3)O2)O1 (some centres not stated); condition met

* * *

- Assay overview: small-molecule microarray binders of probe aLefty2, primary screen, biochemical, biotinylated probe, 635/667 nm fluorescence (AID 1094);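 also: score merges spot fluorescence near 667 nm with spot signal-to-noise ratio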
- Recorded conditions: higher = more signal
composite z-score overview
Measurement kind: composite z-score

O=C1[C@H]2[C@H]3[C@H](O)[C@H](O)CC(=NO[C@@H]4O[C@H](CO)[C@@H](O)[C@H](O)[C@H]4O)[C@H]3CC[C@H]2C(=O)N1c1ccc(F)cc1F; -0.128
CCOC(=O)NN=C1C[C@@H](O)[C@@H](O)[C@@H]2[C@@H]3C(=O)N(C[C@@H]4CCCO4)C(=O)[C@@H]3CC[C@H]12; -0.179
COC(=O)[C@H](C)NC(=O)CCC1CC(OC(=O)NCc2cccc3ccccc23)CC2(CCCC(COC(=O)NCCOc3ccccc3)O2)O1 (stereo partly specified); -0.208
C[C@H]1CC[C@H]2C(=O)OC(COc3ccc(C(C)(C)C)cc3)CN2[C@@H]1c1ccc(Br)cc1 (stereo partly specified); -0.139
CCOC(=O)[C@H](CC(C)C)NC(=O)CCC1CC(OC(=O)NCCc2ccc(F)cc2)CC2(CCCC(COC(=O)NCc3cccc4ccccc34)O2)O1 (stereo partly specified); -0.181
CCCNC(=O)OC[C@H]1O[C@H](CCON=C2C[C@@H](O)[C@@H](O)[C@@H]3[C@@H]4C(=O)N(CC)C(=O)[C@@H]4CC[C@@H]23)C=C[C@@H]1Oc1ccc(OC)cc1; -0.0932
